Test: Stability in rat liver microsomes assessed as half-life at 1 uM measured upto 60 mins in the presence of NADPH by LC-MS/MS analysis
Format: ADME, Microsome
Listed here are compounds together with their documented half-life at 1 µM.
Field: numeric (h). Do not append units.

The compound "O=C(O)c1cc(F)c2nc(CN3CCN(c4cccc(OCc5ccc(Cl)c6cc(F)oc56)n4)C=N3)n(C[C@@H]3CCO3)c2c1" showed half-life at 1 µM equal to 1.58

###

Experiment: Tmax in Sprague-Dawley rat at 5 mg/kg, po measured upto 24 hrs by LC-MS/MS analysis
Type: ADME, organism-based
Details: in vivo
quantity-kind: Tmax (min)
Field: numeric (min). Do not append units.

The compound "COc1cc(C(F)(F)F)ccc1COc1cccc(N2C=NN(Cc3nc4c(F)cc(C(=O)O)cc4n3C[C@@H]3CCO3)CC2)n1" showed Tmax equal to 15
